System: SK-OV-3 ovarian
run_description: NCI-60 one-dose screen, 48 h (100 = growth as untreated, 0 = no growth, -100 = all killed)
test_context: 10 µM unless noted
About 83,000 compounds went through this panel and 20% of them were active in at least one assay; those are over-represented in the sample as a whole.
Label condition met for high-side growth (at or above 80%) and condition not met for low-side growth (below it).

>>> assigned_class("CC[C@H](C)[C@@H]([C@@H](CC(=O)N1CCC[C@H]1[C@H](OC)[C@@H](C)C(=O)N[C@H](C)[C@@H](O)c1ccccc1)OC)N(C)C(=O)[C@@H](NC(=O)[C@@H](NC)C(C)C)C(C)C")
"condition not met"
>>> assigned_class("O=[N+]([O-])c1ccc([Se]C2CCCCC2Cl)c([N+](=O)[O-])c1 (centres undefined)")
"condition met"
>>> assigned_class("COc1cc2c(cc1OCCCCCn1c(-c3ccco3)nc3ccccc31)N=C[C@@H]1CCCN1C2=O")
"condition not met"
>>> assigned_class("CC(=O)O[C@H]1C(=O)[C@@]2(C)[C@H]([C@H](OC(=O)c3ccccc3)[C@]3(O)C[C@H](OC(=O)[C@H](OC(=O)OC[C@@H]4COC(C)(C)O4)[C@@H](NC(=O)c4ccccc4)c4ccccc4)C(C)=C1C3(C)C)[C@]1(OC(C)=O)CO[C@@H]1C[C@@H]2O")
"condition not met"

Q) Is growth at least 80%? Consider COc1cccc(/C=C/[N+](=O)[O-])c1
A) condition met

Q) Is growth at least 80%? Consider CCC1(C)CC(CCNCc2ccccc2O)(c2ccc(C)cc2)CCO1 (centres undefined)
A) condition met

Q) Is growth at least 80%? Consider CC[C@@H]1[C@@H](C)O[C@@](O)([C@@H](C)[C@H](O)[C@H](C)[C@H]2OC(=O)/C=C/C=C/[C@H](C)[C@@H]([C@@H](C)[C@@H](O)[C@H](C)[C@@]3(O)C[C@@H](O[C@H]4C[C@@H](O)[C@H](O)C(C)O4)[C@H](CC)[C@@H](C)O3)OC(=O)/C=C/C=C/[C@@H]2C)C[C@H]1O[C@@H]1C[C@@H](O)[C@H](O)C(C)O1 (some centres undefined)
A) condition not met

Q) Is growth at least 80%? Consider O=C1NC(=O)C(=Cc2cn(C(=O)c3ccccc3)c3ccccc23)C(=O)N1
A) condition met

Q) Is growth at least 80%? Consider O=[N+]([O-])CC(c1ccccc1Cl)c1c(-c2ccccc2)[nH]c2ccccc12 (centres undefined)
A) condition not met

Q) Is growth at least 80%? Consider CCC[CH2][Sn]([CH2]CCC)([CH2]CCC)[O]c1ccc(Cl)cc1Cl
A) condition not met

Q) Is growth at least 80%? Consider CCOC(=O)CCC(NC(=O)C(Cc1ccc(N(CCCl)CCCl)cc1)NC=O)C(=O)OCC (centres undefined)
A) condition met

Q) Is growth at least 80%? Consider [Au+].[N-]=C=O.c1ccc(CN2[CH-]N(Cc3ccccc3)C(c3ccccc3)=C2c2ccccc2)cc1
A) condition met

Q) Is growth at least 80%? Consider Cc1cc(N(CCCl)CCCl)ccc1C=Nc1ccccc1-c1ccccc1
A) condition met

Q) Is growth at least 80%? Consider CCCCN1CCCC[C@@H]1C(=O)N[C@H](C(=O)N(C)[C@H](C[C@@H](OC(C)=O)c1nc(C(=O)NC2CCC(C(=O)OC)CC2)cs1)C(C)C)C(C)C (some centres undefined)
A) condition not met

Q) Is growth at least 80%? Consider COc1cc(NCCCN=C(N)N)c2ncccc2c1
A) condition met

Q) Is growth at least 80%? Consider COC(=O)[C@@H](C)C[C@H](Cc1ccccc1)NC(=O)c1nc([C@@H](C[C@H](C(C)C)N(C)C(=O)[C@@H](NC(=O)[C@H]2CCCCN2C)C(C)C)OC(C)=O)sc1C
A) condition not met

Q) Is growth at least 80%? Consider CN(C)C1C(=O)C(C(N)=O)=C(O)C2(O)C(=O)C3=C(O)c4c(O)cccc4C(C)(O)C3CC12.[Cl][Sb]([Cl])[Cl] (centres undefined)
A) condition not met

Q) Is growth at least 80%? Consider Clc1cccc(NCOOC2(OOCNc3cccc(Cl)c3)CCCCC2)c1
A) condition met

Q) Is growth at least 80%? Consider CC(=O)C(c1c(O)c2ccccc2oc1=O)c1cc(=O)oc2c1ccc1ccccc12 (centres undefined)
A) condition met

Q) Is growth at least 80%? Consider C=CC1=C[C@@H]2[C@@H]3O[C@]4(CC[C@H](O4)[C@@H](C)C[C@@H](O)C3=O)C[C@H](O)C3=NCC[C@@]32CC1
A) condition not met

Q) Is growth at least 80%? Consider Cc1ccc(N2COOC3(OOC2)C2CC4CC(C2)CC3C4)cc1
A) condition met

Q) Is growth at least 80%? Consider CC(=O)c1ccc(C(=O)NCC2CCC3(CC2)OOC2(CCCCC2)OO3)cc1
A) condition met

Q) Is growth at least 80%? Consider CC1(C)C(C(=O)c2cn(CCCCF)c3ccccc23)C1(C)C
A) condition met

Q) Is growth at least 80%? Consider Nc1nnnc2nc[nH]c12
A) condition not met

Q) Is growth at least 80%? Consider C[C@@]12CC=C3c4nc(Nc5cccc(O)c5)sc4CC[C@]3(C)[C@H]1CC[C@]1(C)C(=O)CC[C@@H]21
A) condition not met

Q) Is growth at least 80%? Consider CN1CCCCC1C(C)(O)c1ccccc1 (centres undefined)
A) condition met

Q) Is growth at least 80%? Consider CN(C)C(=O)Oc1ccccc1-c1ccccc1
A) condition met

Q) Is growth at least 80%? Consider OCCNC(Cc1ccccc1)c1ccc2c(c1)OCO2 (centres undefined)
A) condition not met

Q) Is growth at least 80%? Consider CCCCCCCOC(C(=O)OCCN(CC)CC)(c1ccccc1)c1ccccc1
A) condition met
